Test system: HCT-116 colon
Test: NCI tumour cell line growth inhibition, 48 h; in the data active = GI50 below about 0.43 µM; inactive = the rest
Form entry, call: pick from active, inactive

1) ClCCn1c(CCl)nc2ccc(Cl)cc21 :: active

Exercise: Recorded test outcome, item CC(C)(C)C[C@H]1NC(C(=O)NCC[C@H](O)CO)[C@H](c2cccc(Cl)c2)[C@@]12C(=O)Nc1cc(Cl)c(F)cc12 (stereo not given in full)
Solution: inactive

Exercise: Recorded test outcome, item Nc1c(C(=O)Nc2cccc([N+](=O)[O-])c2)sc2nc3c(cc12)C(O)CCC3 (stereo not given)
Solution: inactive

Exercise: Recorded test outcome, item `Nc1ccn(Cc2ccc(C34CC5CC(CC(C5)C3)C4)c(O)c2)c(=O)n1`
Solution: inactive

Exercise: Recorded test outcome, item `C=C1C(=O)O[C@H]2[C@H]1CC/C(COC(=O)NCc1ccccc1OC)=C\CC[C@@]1(C)O[C@@H]21`
Solution: inactive
